- Assayed System: T1, talin-1 head domain (THD1) (UniProt P26039 1-405)
- T1 construct: talin-1 (TLN1) head domain (THD), residues 1-405; murine TLN1 cDNA is named only for the cell lines; also called WT; source: E. coli (DE3) Rosetta 2, purified (IMAC, SEC); not shown: His10-SUMO, N-terminal, cleaved
- T1 sequence (P26039 1-405): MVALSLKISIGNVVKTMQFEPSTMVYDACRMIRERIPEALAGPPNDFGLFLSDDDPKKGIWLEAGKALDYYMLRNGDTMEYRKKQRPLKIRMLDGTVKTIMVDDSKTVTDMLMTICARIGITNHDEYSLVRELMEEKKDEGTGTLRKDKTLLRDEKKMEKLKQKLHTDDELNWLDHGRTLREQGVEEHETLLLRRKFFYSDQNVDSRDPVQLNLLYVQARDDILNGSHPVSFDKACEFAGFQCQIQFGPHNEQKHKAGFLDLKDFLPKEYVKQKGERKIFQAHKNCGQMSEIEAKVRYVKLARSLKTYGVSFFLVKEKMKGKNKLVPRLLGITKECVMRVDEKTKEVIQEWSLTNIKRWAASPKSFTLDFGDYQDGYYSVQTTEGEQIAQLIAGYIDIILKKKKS
- Method Notes: MST; unlabelled protein titrated to 50-200 nM ATTO 488-labelled β-CT peptide, no third protein; 20 mM Tris pH 7.5, 200 mM NaCl, 1 mM TCEP, 0.05% Tween-20; Kd of individual titrations (in S0002 mean and sd, n = 2)
- Cond: both partners purified
No end group written: not given here.
Measurement Label: pKd
Answers are plain numbers, as −log10 of the molar value.

Entry {ATTO 488}-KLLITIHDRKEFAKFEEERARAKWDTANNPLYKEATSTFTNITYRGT (peptide, UniProt O54890 741-787, looked up, integrin β3 cytoplasmic tail (β3-CT); source: synthetic peptide (MPIB Core Facility)) [ATTO 488-labeled integrin β3 cytoplasmic tail (488–β3-CT)] , pKd reported as 4.09
